# ASSAY_OVERVIEW: PAMPA (parallel artificial membrane permeability assay)
# Type: in vitro ADME
# APPLIED_CONDITIONS: PAMPA; membrane permeation rate (Pe); 50 mM MOPSO buffer pH 6.5 with 5.0% glycocholic acid, 37° C., 18 hours; read-out: iPAMPA Pe
Starred links: 1 amine or outer side, 2 acyl side, 3 side chain; linkers in the order of their positions; H or OH if unused. Positions of bridges follow the written chain, without caps; N, C: chain ends. Non-standard residues stand in square brackets, D forms with d. Residues, ends and D or L forms follow the SMILES beside them. *: point of attachment. Phe(3-(CH2)4CO) = O=C([C@H](Cc1cccc(CCCCC(=O)[*:3])c1)N[*:1])[*:2]; Phe(4-CF3) = N[C@@H](Cc1ccc(C(F)(F)F)cc1)C(=O)O; NMeF = CN[C@@H](Cc1ccccc1)C(=O)O; NMeI = CC[C@H](C)[C@H](NC)C(=O)O; NMeβAla = CN(CCC(=O)[*:2])[*:1]; NMeL = CN[C@@H](CC(C)C)C(=O)O; NMeV = CN[C@H](C(=O)O)C(C)C; NMeS = CN[C@@H](CO)C(=O)O; NMeA = CN[C@@H](C)C(=O)O; Piperidide = C1CCN(*)CC1; β3hA = C[C@H](N)CC(=O)O; Sar = CNCC(=O)O; tBu = CC(C)(C)*
# class assignment by measured Papp at 18 hours, 50 µM: range 1 (below 9 ×10⁻⁶ cm/s), range 2 (9 ×10⁻⁶ cm/s to below 30 ×10⁻⁶ cm/s), range 3 (30 ×10⁻⁶ cm/s or more)

Tag the class for CC(C)C[C@H]1C(=O)N[C@@H](C)C(=O)N(C)[C@@H](C)C(=O)N[C@H](C(=O)N(C)[C@@H](Cc2ccccc2)C(=O)N[C@@H](C)C(=O)N2CCCCC2)CC(=O)N(C)[C@@H](C)C(=O)N(C)[C@@H](C(C)C)C(=O)N(C)[C@@H](C)C(=O)N[C@@H]([C@@H](C)O)C(=O)N(C)[C@@H](C)C(=O)N[C@@H](Cc2ccccc2)C(=O)N1C [DP-458] ([NMeA][NMeV][NMeA]T[NMeA]F[NMeL]A[NMeA]D[NMeF]A-Piperidide; lactam N-10)
range 1

# classify by Papp at 18 hours, 50 µM band: CC(C)C[C@H]1C(=O)N(C)[C@@H](C)C(=O)N[C@H](C(=O)N(C)[C@@H](Cc2ccccc2)C(=O)N[C@@H](C)C(=O)N2CCCCC2)CC(=O)N(C)[C@@H](C)C(=O)N(C)[C@@H](Cc2ccccc2)C(=O)N(C)[C@@H](C)C(=O)N[C@@H]([C@@H](C)O)C(=O)N(C)[C@@H](C)C(=O)N[C@@H](C(C)C)C(=O)N1C [DP-357] ([NMeA][NMeF][NMeA]T[NMeA]V[NMeL][NMeA]D[NMeF]A-Piperidide; lactam N-9)
range 2

# classify by Papp at 18 hours, 50 µM band: CC(C)C[C@H]1C(=O)N[C@H](C(=O)N2CCCCC2)Cc2cccc(c2)CCCCC(=O)N[C@@H]([C@@H](C)O)C(=O)N(C)[C@@H](C)C(=O)N(C)[C@@H](Cc2ccccc2)C(=O)NCC(=O)N(C)[C@@H](Cc2ccccc2)C(=O)N(C)[C@@H](CC(C)C)C(=O)N(C)[C@@H](CC(C)C)C(=O)N1C [DP-843] (T[NMeA][NMeF]G[NMeF][NMeL][NMeL][NMeL][Phe(3-(CH2)4CO)]-Piperidide; lactam N-9)
range 3

Please let me know in which category the item CC(C)C[C@@H]1NC(=O)[C@H](CO)N(C)C(=O)[C@H](CC(C)C)N(C)C(=O)[C@H](CC(C)C)N(C)C(=O)[C@H](CC(C)C)N(C)C(=O)[C@@H](C)NC(=O)C[C@H](C)NC(=O)[C@H](CC(C)C)N(C)C(=O)[C@H](CC(C)C)NC(=O)[C@H](CC(C)C)N(C)C(=O)CN(C)C1=O [DP-639] (cyclo(L[NMeL][β3hA][dA][NMeL][NMeL][NMeL][NMeS]L[Sar][NMeL])) belongs.
range 3

Class? Entry: CC(C)C[C@@H]1NC(=O)[C@@H](C(C)C)NC(=O)C[C@H](C)NC(=O)[C@H](CC(C)C)N(C)C(=O)[C@H](Cc2ccccc2)N(C)C(=O)[C@H](CC(C)C)N(C)C(=O)[C@H](Cc2ccc(C(F)(F)F)cc2)NC(=O)[C@H](C)N(C)C(=O)[C@H]([C@@H](C)O)NC1=O [DP-790] (cyclo(LT[NMeA][Phe(4-CF3)][NMeL][NMeF][NMeL][β3hA][dV]))
range 3

Please indicate the class for CC(C)C[C@@H]1NC(=O)[C@H](CC(C)C)N(C)C(=O)[C@@H]2CCCN2C(=O)[C@H](CC(C)C)N(C)C(=O)[C@H](Cc2ccccc2)NC(=O)CNC(=O)[C@H](CC(C)C)N(C)C(=O)[C@H](Cc2ccccc2)NC(=O)CCN(C)C(=O)C[C@@H](C(=O)N(C)[C@@H](Cc2ccccc2)C(=O)N[C@@H](C)C(=O)N2CCCCC2)NC(=O)[C@H]([C@@H](C)O)NC1=O [DP-182] ([NMeβAla]F[NMeL]GF[NMeL]P[NMeL]LTD[NMeF]A-Piperidide; lactam N-11) based on its Papp at 18 hours, 50 µM.
range 2

Into which category would you place CC(C)C[C@H]1C(=O)N[C@@H]([C@@H](C)O)C(=O)N(C)[C@@H](C)C(=O)N[C@H](C(=O)N2CCCCC2)CC(=O)N[C@H](C)C(=O)N(C)[C@@H](C)C(=O)N(C)[C@@H](Cc2ccccc2)C(=O)N1C [DP-538] ([dA][NMeA][NMeF][NMeL]T[NMeA]D-Piperidide; lactam N-7) ?
range 1

Hello team, could you let me know which band the following compound falls into: CC(C)C[C@H]1C(=O)N(C)[C@@H](C)C(=O)N[C@@H](COC(C)(C)C)C(=O)N(C)[C@@H](C(C)C)C(=O)N[C@H](C(=O)N2CCCCC2)CC(=O)N(C)[C@@H](C)C(=O)N(C)[C@@H](Cc2ccccc2)C(=O)N[C@@H](C)C(=O)N(C)[C@@H](C)C(=O)N[C@@H](Cc2ccccc2)C(=O)N[C@@H]([C@@H](C)O)C(=O)N(C)[C@@H](C)C(=O)N1C [DP-317] ([NMeA][NMeF]A[NMeA]FT[NMeA][NMeL][NMeA]S(tBu)[NMeV]D-Piperidide; lactam N-12)
range 2

Class for CC[C@H](C)[C@H]1C(=O)N[C@@H](C)C(=O)N[C@H](C(=O)N2CCCCC2)CC(=O)N[C@H](C(C)C)C(=O)N[C@@H](Cc2ccccc2)C(=O)N(C)[C@@H](C(C)C)C(=O)N(C)[C@@H](C)C(=O)N[C@@H]([C@@H](C)O)C(=O)N(C)CC(=O)N(C)[C@@H](CC(C)C)C(=O)N1C [DP-254] ([dV]F[NMeV][NMeA]T[Sar][NMeL][NMeI]AD-Piperidide; lactam N-10) ?
range 1
